System: PXR:RXRa (NR concentration 270 nM, RXRa partner concentration 90 nM)
Assay: PBM binding z-score (relative to random genomic background probes); higher = stronger binding; sequences stand for … in GC…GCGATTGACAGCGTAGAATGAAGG
MEASUREMENT_KIND: PBM binding z-score

1) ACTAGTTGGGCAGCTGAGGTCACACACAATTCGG :: 4.46
2) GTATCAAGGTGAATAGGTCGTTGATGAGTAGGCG :: 0.996
3) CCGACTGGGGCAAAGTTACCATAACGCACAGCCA :: -0.542
4) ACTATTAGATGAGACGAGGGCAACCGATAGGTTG :: 0.465
5) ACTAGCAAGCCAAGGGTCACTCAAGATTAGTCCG :: 3.01
6) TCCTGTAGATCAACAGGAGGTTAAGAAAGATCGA :: 0.654
7) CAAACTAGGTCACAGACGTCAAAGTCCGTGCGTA :: 1.72
8) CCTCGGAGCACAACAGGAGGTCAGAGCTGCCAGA :: 1.56
9) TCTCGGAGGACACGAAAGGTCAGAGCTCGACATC :: 3.96
10) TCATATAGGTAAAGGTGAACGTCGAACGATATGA :: 0.966
11) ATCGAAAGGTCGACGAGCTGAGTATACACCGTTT :: 2.22
12) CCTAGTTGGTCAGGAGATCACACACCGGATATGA :: 0.215
